Each entry below carries its recorded Bliss excess.
System: NCI-H1355 (Lung Adenocarcinoma);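 note: after 72 h of two-drug dosing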
Assay summary: Bliss excess, mean over the matrix (fraction); higher = more synergy

>  <Molecule>
CN(C)CCCOc1ccc(-c2ccc3ncc4c(c3c2)n(C2CCOCC2)c(=O)n4C)cn1 [AZD0156] + C=CCn1c(=O)c2cnc(Nc3ccc(N4CCN(C)CC4)cc3)nc2n1-c1cccc(C(C)(C)O)n1 [AZD1775] (first compound max 1 µM, partner max 1 µM)

>  <Test system>
NCI-H1355 (Lung Adenocarcinoma);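 note: after 72 h of two-drug dosing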

>  <Bliss excess>
-0.0472

$$$$
>  <Molecule>
COc1cccc(OCCCN)c1-c1cc(Nc2cnc(C#N)cn2)n[nH]1 [Prexasertib] + Cc1cc2ncnn2cc1Nc1ncc2c(n1)n(C1CCOCC1)c(=O)n2C [AZD7648] (first compound max 1 µM, 7x7, partner max 10 µM)

>  <Test system>
NCI-H1355 (Lung Adenocarcinoma);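 note: after 72 h of two-drug dosing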

>  <Bliss excess>
-0.0405

$$$$
>  <Molecule>
CN(C)CCCOc1ccc(-c2ccc3ncc4c(c3c2)n(C2CCOCC2)c(=O)n4C)cn1 [AZD0156] + O=C(c1cc(Cc2n[nH]c(=O)c3ccccc23)ccc1F)N1CCN(C(=O)C2CC2)CC1 [Olaparib] (first compound max 3 µM, partner max 3 µM)

>  <Test system>
NCI-H1355 (Lung Adenocarcinoma);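 note: after 72 h of two-drug dosing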

>  <Bliss excess>
0.0176

$$$$
>  <Molecule>
Cc1cc2ncnn2cc1Nc1ncc2c(n1)n(C1CCOCC1)c(=O)n2C [AZD7648] + C[C@@H]1COCCN1C2=NC(=NC(=C2)C3(CC3)[S@](=N)(=O)C)C4=C5C=CNC5=NC=C4 [AZD6738] (first compound max 10 µM, 7x7, partner max 10 µM)

>  <Test system>
NCI-H1355 (Lung Adenocarcinoma);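 note: after 72 h of two-drug dosing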

>  <Bliss excess>
0.0296

$$$$

* * *

Tested on: HAL-01 (B-Lymphoblastic Leukemia)
Assay summary: combination Emax (second highest fraction inhibited in the dose matrix, 72 h); higher = more inhibition; extreme values may be limits of the assay
Metric name: combination Emax

>  <Compound>
COc1cccc(OCCCN)c1-c1cc(Nc2cnc(C#N)cn2)n[nH]1 [Prexasertib] + Cc1cc2ncnn2cc1Nc1ncc2c(n1)n(C1CCOCC1)c(=O)n2C [AZD7648] (first compound max 1 µM, 7x7, partner max 10 µM)

>  <Measured>
1

$$$$
>  <Compound>
CN(C)CCCOc1ccc(-c2ccc3ncc4c(c3c2)n(C2CCOCC2)c(=O)n4C)cn1 [AZD0156] + O=C(c1cc(Cc2n[nH]c(=O)c3ccccc23)ccc1F)N1CCN(C(=O)C2CC2)CC1 [Olaparib] (first compound max 3 µM, partner max 3 µM)

>  <Measured>
0.563

$$$$
>  <Compound>
COc1cccc(OCCCN)c1-c1cc(Nc2cnc(C#N)cn2)n[nH]1 [Prexasertib] + C[C@@H]1COCCN1C2=NC(=NC(=C2)C3(CC3)[S@](=N)(=O)C)C4=C5C=CNC5=NC=C4 [AZD6738] (first compound max 1 µM, 7x7, partner max 10 µM)

>  <Measured>
1

$$$$
>  <Compound>
COc1cc2c(cc1OCCCCCOc1cc3c(cc1OC)C(=O)N1C=C(C)C[C@H]1C=N3)N=C[C@@H]1CC(C)=CN1C2=O [SG3199] + O=C(c1cc(Cc2n[nH]c(=O)c3ccccc23)ccc1F)N1CCN(C(=O)C2CC2)CC1 [Olaparib] (first compound max 0.001 µM, 7x7, partner max 10 µM)

>  <Measured>
0.215

$$$$
